Source: patent US20200115357A1

Listing: EC50 of selected compounds
target: LXRβ full length (FL) (Homo sapiens, UniProt P55055, DUP175-175); construct: the full length (FL) proteins of LXRα (amino acids 1-447); NP005684; NP009052; assay: LXR Gal4 reporter transient transfection assay (M2H), Gal4β FL; details: HEK293 cells; read-out: M2H Gal4β FL activity range (EC50)
Sequence (P55055 with tags, fused parts or gaps DUP175-175): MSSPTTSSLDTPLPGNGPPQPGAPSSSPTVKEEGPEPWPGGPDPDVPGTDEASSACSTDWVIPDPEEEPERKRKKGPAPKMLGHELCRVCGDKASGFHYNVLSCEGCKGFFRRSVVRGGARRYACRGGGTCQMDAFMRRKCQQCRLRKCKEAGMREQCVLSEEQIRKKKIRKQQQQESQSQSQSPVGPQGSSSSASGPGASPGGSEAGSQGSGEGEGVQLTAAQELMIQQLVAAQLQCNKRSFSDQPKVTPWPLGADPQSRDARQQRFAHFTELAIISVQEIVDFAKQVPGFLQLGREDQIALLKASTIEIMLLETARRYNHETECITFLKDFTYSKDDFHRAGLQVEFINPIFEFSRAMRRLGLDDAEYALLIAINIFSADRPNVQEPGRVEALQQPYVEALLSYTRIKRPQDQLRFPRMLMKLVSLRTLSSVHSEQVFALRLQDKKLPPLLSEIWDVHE

These solved cases illustrate the format of a correct answer.
chemicalSmiles	tgt	reportedValue
Cc1ccc(S(=O)(=O)N(Cc2ccc(-c3cccc(S(=O)(=O)CC(=O)O)c3)cc2)Cc2ccc(C(F)(F)F)o2)c(C)c1	LXRβ full length (FL) (Homo sapiens, UniProt P55055, DUP175-175)	100 to 1000 nM
Cc1cc(C(F)(F)F)oc1CN(Cc1ccc(-c2cccc(C(C)(C)C(=O)O)c2)cc1)S(=O)(=O)c1c(C)ccc2ccccc12	LXRβ full length (FL) (Homo sapiens, UniProt P55055, DUP175-175)	< 100 nM
Cc1cc(C)c(S(=O)(=O)N(Cc2ccc(-c3cccc(S(=O)(=O)CC(=O)O)c3)cc2)C(C)(C)c2ccc(C(F)(F)F)o2)c(C)c1	LXRβ full length (FL) (Homo sapiens, UniProt P55055, DUP175-175)	1000 to 10000 nM

Attention now shifts to the item below.
What measured EC50 goes with `COc1cccc(CN(Cc2ccc(-c3cccc(S(=O)(=O)CC(=O)O)c3)cc2)S(=O)(=O)c2c(C)cc(C)cc2C)c1` ?
1000 to 10000 nM
